- Test system: OVCAR-4
- PROTOCOL: Growth assay (Cell Titer Glo)
- Format: cell-based
- TEST PARAMETERS: Homo sapiens; OVCAR-4, ovarian
IC50 overview
Hi! Could you send only the number? It should be in nM, unit omitted.

>  <MOLECULE>
COC(=O)[C@H]1Cc2c([nH]c3ccccc23)[C@H](c2ccc(Cl)cc2Cl)N1C(=O)CCl [Compound 2j]

>  <IC50 (nM)>
50

$$$$

Please find the next molecule below.
input: Query: IC50; subject: COC(=O)[C@H]1Cc2c([nH]c3ccccc23)[C@H](c2cc(OC)ccc2OC)N1C(=O)CCl [Compound 2f]
output: 15

Provenance of the data: patent US9169247B2
